Provenance of the data: patent US5489609A

ALT, mean ± S.D. values, listed per item
Test system: Hepatopathy in mice (carbon tetrachloride)
Test name: Anti-hepatitis test: hepatopathy in mice (carbon tetrachloride)
Assay type: in vivo, ddy strain male mice
Assay context: 200 mg/kg orally 3 h after carbon tetrachloride; blood 24 h after carbon tetrachloride; * p < 0.05
Give the value, in units of IU, as a plain number.

The cases that follow already have their ALT, mean ± S.D. on record.
given_smiles=CC1(C)[C@@H](O[C@H]2O[C@H](C(=O)O)[C@@H](O)[C@H](O)[C@H]2O[C@@H]2O[C@H](C(=O)O)[C@@H](O)[C@H](O)[C@H]2O)CC[C@]2(C)[C@H]3C(=O)C=C4[C@@H]5C[C@@](C)(C(=O)O)CC[C@]5(C)CC[C@@]4(C)[C@]3(C)CC[C@@H]12 study_system="Hepatopathy in mice (carbon tetrachloride)" measured_parameter="ALT, mean ± S.D." scale_unit=IU numeric_result=13362.1
given_smiles=NCCS(=O)(=O)O study_system="Hepatopathy in mice (carbon tetrachloride)" measured_parameter="ALT, mean ± S.D." scale_unit=IU numeric_result=14609.6
given_smiles=NCCS(=O)(=O)[O-].NCCS(=O)(=O)[O-].[Zn+2] study_system="Hepatopathy in mice (carbon tetrachloride)" measured_parameter="ALT, mean ± S.D." scale_unit=IU numeric_result=8899.4
given_smiles=NCCS(=O)(=O)O.NCCS(=O)(=O)O.NCCS(=O)(=O)[O-].NCCS(=O)(=O)[O-].[Zn+2] study_system="Hepatopathy in mice (carbon tetrachloride)" measured_parameter="ALT, mean ± S.D." scale_unit=IU numeric_result=8597.1

Moving on to another compound below.
Ask | Provide one value: measured ALT, mean ± S.D. of N[C@@H](CCC(=O)N[C@@H](CS)C(=O)NCC(=O)O)C(=O)O
Reply | 12030.2
